Test system: erythroid progenitor cells (EPCs)
Test: Fetal hemoglobin (HbF) ELISA in day 7 erythroid progenitor cells;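 also: for fetal hemoglobin induction normalized to vehicle-treated cells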
Type: cell-based, human
Settings: Homo sapiens, Erythroid progenitor cell, HbF ELISA, day 7 EPCs, 5 days; read-out: EPC ELISA (pEC50 category) (converted)
Consider the following compounds and their measured EC50 readings.

What reported EC50 corresponds to CCc1c(C#N)c(SC(C(N)=O)c2ccccc2)nc(N2CCC(N3CCC[C@H]3C)CC2)c1C#N (stereo partly shown) on erythroid progenitor cells (EPCs)?
< 316 nM

What reported EC50 corresponds to CCc1c(C#N)c(SCc2ccc(N(C)S(C)(=O)=O)cc2)nc(N2CCC(N3CCCC3)CC2)c1C#N on erythroid progenitor cells (EPCs)?
< 316 nM

What reported EC50 corresponds to CCc1c(C#N)c(SCc2ccc(S(C)(=O)=O)cc2)nc(N2CCCN(C)CC2)c1C#N on erythroid progenitor cells (EPCs)?
316 to 1000 nM

What reported EC50 corresponds to COc1c(C#N)c(SC(C(N)=O)c2ccccc2)nc(N(C)C)c1C#N (stereo not shown) on erythroid progenitor cells (EPCs)?
316 to 1000 nM

What reported EC50 corresponds to CCc1c(C#N)c(SC(C(N)=O)c2ccccc2)nc(N2CCC(N)(C(N)=O)CC2)c1C#N (stereo not shown) on erythroid progenitor cells (EPCs)?
1000 to 31600 nM

What reported EC50 corresponds to CCCN1CCN(c2nc(SC(C(N)=O)c3ccccc3)c(C#N)c(CC)c2C#N)CC1 (stereo not shown) on erythroid progenitor cells (EPCs)?
316 to 1000 nM

What reported EC50 corresponds to CCc1c(C#N)c(S[C@@H](C(N)=O)c2ccccc2)nc(N2CC[C@@H](N)[C@@H](F)C2)c1C#N [Example 506, 2,2,2-trifluoroacetate] on erythroid progenitor cells (EPCs)?
< 316 nM

What reported EC50 corresponds to CCc1c(C#N)c(SC(C(N)=O)c2ccc(C)cn2)nc(N2CCCN(C)CC2)c1C#N (stereo not shown) on erythroid progenitor cells (EPCs)?
< 316 nM

What reported EC50 corresponds to CCc1c(C#N)c(SC(C(N)=O)c2ccccc2)nc(N(C)CCN2CCCC2)c1C#N (stereo not shown) on erythroid progenitor cells (EPCs)?
< 316 nM

What reported EC50 corresponds to CCc1c(C#N)c(SC(C(N)=O)c2ccccc2)nc(N2CCOCC2)c1C#N (stereo not shown) on erythroid progenitor cells (EPCs)?
316 to 1000 nM

---

Consider the following compounds and their measured EC50 readings.
System: erythroid progenitor cells (EPCs)
Experiment: Fetal hemoglobin (HbF) ELISA in day 7 erythroid progenitor cells;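 also: for fetal hemoglobin induction normalized to vehicle-treated cells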
Assay type: cell-based, human
Conditions: Homo sapiens, Erythroid progenitor cell, HbF ELISA, day 7 EPCs, 5 days; read-out: EPC ELISA (pEC50 category) (converted)

CCc1c(C#N)c(SC(C(N)=O)c2ccccc2)nc(N2CC(OP(=O)(O)O)C2)c1C#N (stereo not shown)    1000 to 31600 nM
CCc1c(C#N)c(SCc2ccc(CNC(C)=O)cc2)nc(SC(C(N)=O)c2ccccc2)c1C#N (stereo not shown)    1000 to 31600 nM
CCc1c(C#N)c(SC(C(N)=O)c2ccccc2)nc(N2CCCN(C)CC2)c1C#N (single isomer, unassigned; isomer 1) [Example 254]    316 to 1000 nM

// next entry
What reported EC50 corresponds to CCc1c(C#N)c(SC(C(N)=O)c2ccccc2)nc(N2CC[C@H](N(C)C)C2)c1C#N (stereo partly shown) on erythroid progenitor cells (EPCs)?
1000 to 31600 nM
